The measured values listed here are drawn from the supplement of paper PMC6555819.

# Test system: PPARg:RXRa 30nM:10nM, anti-RXR (NR concentration 30 nM, RXRa partner concentration 10 nM)
# procedureText: PBM binding z-score (relative to random genomic background probes); higher = stronger binding; sequences stand for … in GC…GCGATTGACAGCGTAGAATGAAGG
Items are presented alongside their recorded PBM binding z-score.
Form: value (number only, do not type unit).

*Q* Looking for the measured PBM binding z-score of GCTCGGAGGACGAGGTCAGAGCTTTGTCCGTAGA , can you help?
*A* -0.495

*Q* What do we get for CGAACTAGGTCATTGACAGGACAGTCAATAGTAA ?
*A* 3.32

*Q* What do we get for ACAGACAGGTGATGAAGGTAGCTCAGGCTATCAT ?
*A* -0.307

*Q* What do we get for CATACAGGGTCAGCTAGGGCAGAGTAGGGACGGC ?
*A* 0.549

*Q* What do we get for TCTTGTAGATCAAGCAGGTTATGAAAGCCTGAGT ?
*A* 2.34

*Q* What do we get for GCTATTAGTTGAAACGGCAACCGAATGATTCTCG ?
*A* 0.0955

###

# Tested on: PPARg DBDmut:RXRa IVT, anti-PPARg (DBD mutation: PPARg1 K132A/R137A, NR concentration 270 nM, RXRa partner concentration 90 nM)
# procedureText: PBM binding z-score (relative to random genomic background probes); higher = stronger binding; sequences stand for … in GC…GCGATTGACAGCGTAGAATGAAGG
Threshold check on PBM binding z-score: at or above -0.3 gives true (1), strictly below gives false (0).

Some solved cases for reference:
* CCGACTGGGGGAAGGTTACCATAACGCACAGCCA | true (1)
* TCATATAGGAAAATGCTAGGTGAAAGTCCGATCT | true (1)
* CCAGACAGGTGAGAAGGTCACTCAGCCTCGATTA | true (1)
* GCGACTGGGGCAAAACAGGTTACCATAAGGTTGG | false (0)
* TGAATGAGGTTCAAGATCAGGGAACGTGGCGTCG | true (1)
* GCTCGGAGGACATGGTCAGAGCTTTGTCCGTAGA | false (0)
* TTACCAAGGGGAAAGGTCGTTGATGCACGCCTTG | true (1)
* CCTTACGGCTCACGAGGTTATAGCACGACGAGCG | true (1)
* GCAGACAGGTGAAACGCAGGTAACACAGGGTGGC | true (1)
* GCTGATAGGTCAACTGATGGTCAGCTAAAGCTCG | false (0)

*Q* Check if PBM binding z-score >= -0.3 (inclusive). Item: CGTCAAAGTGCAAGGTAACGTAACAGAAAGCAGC
*A* true (1)

*Q* What do we get for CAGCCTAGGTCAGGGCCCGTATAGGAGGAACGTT ?
*A* false (0)

###

# Tested on: LXRb homodimer (NR concentration 270 nM)
# procedureText: PBM binding z-score (relative to random genomic background probes); higher = stronger binding; sequences stand for … in GC…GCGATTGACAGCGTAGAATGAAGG
Items are presented alongside their recorded PBM binding z-score.
Form: value (number only, do not type unit).

Recorded PBM binding z-score, per entry:
• AATACAGGGTTACTAGGCCAGAGTAGGTACGAAT = 0.122
• TGAATGAGGTTATAAGATCAGTGAACGTTGCAAA = -0.0173
• ACAGACAGGTGAGTTAAGGTAACTCAGCTGGACG = -0.347
• TCTATTAGTTAATTAGGGCAACCGAAACAGCGGA = 0.558

*Q* Looking for the measured PBM binding z-score of CCGAGTAGGTTATGGGGCATTGAGGCAACGGTGA , can you help?
*A* -0.0283

*Q* What do we get for ATGTCTAGGTAACAAGTTCAGTGAAAGAGAGGAC ?
*A* 0.845

*Q* What do we get for GCTTATAGGTAATACAAGGTGAAAGTCCGATTGT ?
*A* -0.275

*Q* What do we get for CCTACTGGGCCAAAAGTCATTGATTCCAATGCTC ?
*A* -0.713

*Q* What do we get for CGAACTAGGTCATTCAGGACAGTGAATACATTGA ?
*A* 0.253

*Q* What do we get for CCTAGCAGGCCAGGGTCAGTCAAGCATTTCGCTT ?
*A* -1.29

###

# Test system: PPARg DBDmut:RXRa IVT, anti-PPARg (DBD mutation: PPARg1 K132A/R137A, NR concentration 270 nM, RXRa partner concentration 90 nM)
# procedureText: PBM binding z-score (relative to random genomic background probes); higher = stronger binding; sequences stand for … in GC…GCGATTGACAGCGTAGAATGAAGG
Threshold check on PBM binding z-score: at or above -0.02 gives Yes, strictly below gives No.

Some solved cases for reference:
* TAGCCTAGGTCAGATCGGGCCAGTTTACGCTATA | No
* GCGACTGGGGCAAAGCAGGTTACCATAAGGTTGG | No
* TTACCAAGGTGAGCTGAGGTCGTTGACCCAACTC | Yes
* AGCCAAAGTTCACTAGGTAACGTAAGATTCAGCT | Yes
* GCATATAGGTAATACAAGGTGACAGTCCGATTGT | Yes
* CCTACTGGGCCAAAGGGCATTGATTCCAATGCTC | Yes
* TCACATAGGTAAAAGGTGAAAGTCGGTGTGGTAA | Yes
* ATCGATAGGTCGTGAGGTGAGTATACAGAAAGGC | Yes
* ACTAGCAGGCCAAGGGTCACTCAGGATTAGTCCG | No
* GCTTGTAGAGCAAGGTTAAGAAAGACTAAGCTAA | No

Let us examine a further case.
*Q* Check if PBM binding z-score >= -0.02 (inclusive). Item: GATACAGGGTCAGCTCGAGGCCAGAGTATGGAAA
*A* No

###

# Test system: THRa homodimer (NR concentration 90 nM)
# procedureText: PBM binding z-score (relative to random genomic background probes); higher = stronger binding; sequences stand for … in GC…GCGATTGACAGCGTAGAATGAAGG
Threshold check on PBM binding z-score: at or above 0.9 gives TRUE, strictly below gives FALSE.

- CATACAGGGTCAGCTAGGCCAGAGTTGGGACGGC: FALSE
- CTCGAATGGTCGGTTGAGGTGAGTATACGGATAA: TRUE
- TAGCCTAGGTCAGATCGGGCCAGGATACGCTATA: FALSE
- CCTTACGGGTCATGAGGTTATAGCACGACGAGCG: TRUE
- GCTAGTTGGCCAGTAAAAGGTCACACACCGGTCG: TRUE

Let us examine a further case.
*Q* Check if PBM binding z-score >= 0.9 (inclusive). Item: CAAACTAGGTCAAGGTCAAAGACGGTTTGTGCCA
*A* TRUE

###

# System: RXRa DBDmut IVT, anti-RXR (DBD mutation: RXRa K156A/R161A, NR concentration 90 nM)
# procedureText: PBM binding z-score (relative to random genomic background probes); higher = stronger binding; sequences stand for … in GC…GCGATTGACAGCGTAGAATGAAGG
Items are presented alongside their recorded PBM binding z-score.
Form: value (number only, do not type unit).

• CAGCCTAGGTCAGGGCCAGTTTAGGAGGAACGTT = 0.133

*Q* Looking for the measured PBM binding z-score of AGAATGAGATTAAGATCAGGGAAACAGAATACAT , can you help?
*A* -0.493

*Q* What do we get for CTACCCAGGTGAACAAGGTCGTTGATTACTATTC ?
*A* 0.701

*Q* What do we get for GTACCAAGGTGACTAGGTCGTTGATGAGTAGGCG ?
*A* -0.648

*Q* What do we get for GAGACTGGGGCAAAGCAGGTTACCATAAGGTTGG ?
*A* -0.396

*Q* What do we get for TCGAGTAGGTTACCAATGGGGTATTCAGCTTTCT ?
*A* 0.563

*Q* What do we get for CCTGGTTGGTCAAGGTCACACACGCTATAGGTAC ?
*A* 1.46

*Q* What do we get for TGGATGAGGTTAAAGATCAGGGAACGTGGCGTCG ?
*A* 1.46

*Q* What do we get for CAAACTAGGTCACGAATGGTCAAAGTCGAATGAC ?
*A* 1.61

###

# Tested on: PPARg homodimer (NR concentration 180 nM)
# procedureText: PBM binding z-score (relative to random genomic background probes); higher = stronger binding; sequences stand for … in GC…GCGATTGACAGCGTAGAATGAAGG
Threshold check on PBM binding z-score: at or above 0.8 gives True, strictly below gives False.

Some solved cases for reference:
• ATCTCTAGGTAAGACTCAGCTCAGTGAAGAACGC = False
• ATATATAGGTTATCGGGTCATTCAGTTTGCGCAT = True
• ATCTCTGGGTAAGACTCAGTTCAGTGAAGAACGC = False
• CCTATTAGTTGAGCATAAGGGCAACCGAAGCTCG = True
• TCATATAAGTAATACAGGTGAAAGTCGGCATCTA = True
• TCTTGTAGATCAAAAGAGGTTAAGAAAGTGCGCT = False

*Q* Check if PBM binding z-score >= 0.8 (inclusive). Item: ATATGTACGTTACATCCGGGTCATTCAGGCTATG
*A* True

*Q* What do we get for ATCTCTAGCTAACCAAGTTCAGTGAATGCCGAAC ?
*A* False

*Q* What do we get for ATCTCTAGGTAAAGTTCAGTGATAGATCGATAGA ?
*A* True

*Q* What do we get for ATACCAAAGTGATCGTGAGGTCGTTGATACTAAC ?
*A* False

*Q* What do we get for CATACAGGGTCAGCTAGGCCTGAGTAGGGACGGC ?
*A* True

*Q* What do we get for CTCGAAAGTTCGTGCTCAGGTGAGTATACCAAAC ?
*A* False
